src = paper PMC12162769

Record form. Attribute: IC50 at 72 h. Fill in for each entry.
- procedure-text: Cytotoxic activity, MTT assay
- Assay type: cell-based
- recorded-conditions: mouse, L929 fibroblast cells; 72 h; read-out: IC50 L929 (cytotoxicity)
Field: value (include unit after the number)

molecule	IC50 at 72 h
O=C(Cn1ccnc1[N+](=O)[O-])NCc1ccccc1 [Benznidazole]	807 µg/mL

# evaluate next
Item CCCCCCCCCCCCCCCCOP(=O)([O-])OCC[N+](C)(C)C [Miltefosine] has what recorded IC50 at 72 h? 27 µg/mL
